Source of measurements: patent US20170247449A1

test: in vitro; conditions: human, MCAS ovarian cancer cells
PARAMETER MEASURED: viability at 72 h, 20 nmol/L (%)
Kindly answer with a numeric value in %, unit omitted.

Exam item: Would you kindly share the measured viability at 72 h, 20 nmol/L for Nc1nc2[nH]cc(CCc3ccc(C(=O)N[C@@H](CCC(=O)O)C(=O)O)cc3)c2c(=O)[nH]1 ?
Marked response: 96.6
